Biological target: T1, Human Siglec 5, Fc chimera (R&D Systems) (human, UniProt O15389 17-434, limits assumed)
T1 construct: Bought or recombinant Fc fusion; also called recombinant Siglec-5-Fc; not shown: Fc part
T1 sequence: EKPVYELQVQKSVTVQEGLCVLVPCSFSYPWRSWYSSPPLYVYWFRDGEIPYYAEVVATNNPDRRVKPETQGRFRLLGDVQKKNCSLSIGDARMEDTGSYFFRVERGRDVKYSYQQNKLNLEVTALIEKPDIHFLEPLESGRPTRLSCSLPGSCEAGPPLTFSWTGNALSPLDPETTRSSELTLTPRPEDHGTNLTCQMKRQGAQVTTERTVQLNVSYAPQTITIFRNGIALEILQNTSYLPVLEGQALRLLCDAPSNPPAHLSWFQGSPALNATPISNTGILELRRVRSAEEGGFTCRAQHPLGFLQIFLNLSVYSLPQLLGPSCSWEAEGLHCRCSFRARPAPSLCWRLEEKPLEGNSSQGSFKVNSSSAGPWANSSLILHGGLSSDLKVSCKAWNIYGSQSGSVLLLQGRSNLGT
Experiment: RBC adhesion to plate-bound Siglec-5-Fc, 0.3 ug/ml mAb, percent of binding without antibody
// values below are reported Percent RBC Binding to Siglec-5
Enter your answer as a number in %; do not include the unit.

| BINDER | Percent RBC Binding to Siglec-5, % |
| --- | --- |
| anti-Siglec-5 monoclonal antibody 10F9 (antibody, IgG1, V domains shown) VH: EIQLQQSGPELVKPGASVKVSCKASGYSFTGYNMYWVKQSHGKSFEWIGYIDPYTGGTSYNQRFKGKATLTVDKSSSTAFMHLNSLTSEDSAIYYCALFYDYDGFPYWGQGTLVTVSA VL: DIVMTQSQKFMSTSVGDRVSVTCKASQNVDTNVAWYQQKPGQSPKALIYSASYRYSGVPDRFTGSGSGTDFTLTISNVQSEDLAEYFCQQYNSYPYTFGGGTKLEIK | 48.7 |

Here is the next item to consider.
Q) Give the measured Percent RBC Binding to Siglec-5 of anti-Siglec-5 monoclonal antibody 9B1 (antibody, IgG1, V domains shown) VH: QVQLQQSGAELVKPGASVKLSCKASGYTFTEYTIHWVKQRSGQGLEWIGWFYPGSGSIKYNEKFKDKATLTADKSSSTVYMELSRLTSEDSAVYFCARQEEGGIGFDYWGQGTTLTVSS VL: DVLMTQTPLSLLVSLGDQASISCRSSQSIVHSNGNTYLEWYLQKPGQSPKLLIYKVSIRFSGVPDRFSGSGSGTDFTLKISRVEAEDLGVYYCFQGSHVPWTFGGGTKLEIK .
A) 29.2

Data origin: patent US20210017275A1
